FYI, the data here is from paper PMC9032233.

tested on: MDA-MB-231 human breast cancer cells; assay: MTT cell viability assay, MDA-MB-231; assay type: cell-based; details: MDA-MB-231, MTT, 24 h incubation
experimental-readout: pIC50
Please report pIC50 as the negative decimal logarithm of the molar concentration, giving only the number.

Problem: Respond only with pIC50 recorded for CC(C)C(C(=O)O)N1C(=O)/C(=C/C(Cl)=C/c2ccc([N+](=O)[O-])cc2)SC1=S (centres unmarked) [Les-3331]
Solution: 4.82
